Source: patent US20210228463A1

- MEASUREMENT DESCRIPTION: Effects of WHS on liver and kidney (serum GOT, GPT, BUN)
- Type: in vivo
- TEST CONDITIONS: obese mice (HFD) + oral orlistat
MEASUREMENT KIND: GOT
Include the unit after the number when you answer.

I'd like to know its GOT. The compound in question is `CCCCCCCCCCC[C@@H](C[C@@H]1OC(=O)[C@H]1CCCCCC)OC(=O)[C@H](CC(C)C)NC=O`
63 U/L

* * *

- MEASUREMENT DESCRIPTION: Effects of HG on liver and kidney (serum GOT, GPT, BUN)
- Format: in vivo, mice
- TEST CONDITIONS: serum, obese mice (HFD) + oral orlistat
MEASUREMENT KIND: GPT (U/L)
Just the number please, in U/L, no unit attached.

Look up GPT: `CCCCCCCCCCC[C@@H](C[C@@H]1OC(=O)[C@H]1CCCCCC)OC(=O)[C@H](CC(C)C)NC=O`
17.6

* * *

- MEASUREMENT DESCRIPTION: Effects of HG on liver and kidney (serum GOT, GPT, BUN)
- Assay type: in vivo, mice
- TEST CONDITIONS: serum, obese mice (HFD) + oral orlistat
- Protocol: To analyze in vivo anti-obesity efficacy of HG, animal models of obesity were prepared. […] To examine whether HG induced liver and kidney damage, glutamic oxalacetic transaminase (GOT), glutamic pyruvate transaminase (GPT), and blood urea nitrogen (BUN) were measured by serum analysis using a biochemical analyzer (AU480 Chemistry Analyzer, Beckman coulter, Calif., USA).
MEASUREMENT KIND: GOT (U/L)
Give the number; U/L is assumed, so skip it.

Can you share its GOT? I mean this compound: `CCCCCCCCCCC[C@@H](C[C@@H]1OC(=O)[C@H]1CCCCCC)OC(=O)[C@H](CC(C)C)NC=O`
63
